The reported measurements were obtained from patent US20260216176A1.

# Assay Comment: Plasma, brain and CSF pharmacokinetics and brain tissue accumulation in mice (LC-MS/MS)
# Assay type: in vivo, male C57BL/6 mice
# Test Context: male, C57BL/6, mouse, brain, oral, 5 mg/kg, 5 mg/kg oral; time point 1.00 h; individual animals; read-out: Brain Conc.

# Test Smiles, concentration at 1 h, nM
data = [
    ("Cc1c(N[S+](=O)(O)c2c(Cl)cc(-c3ccnc(N4CCNCC4)c3)cc2Cl)c(CC(C)C)nn1C", 75.5),
]

###

# Assay Comment: Plasma pharmacokinetics in phase I clinical trial NCT04836195 (oral daily dose)
# Format: in vivo, human
# Test Context: human, plasma, oral, 40 mg, plasma; 40 mg; Cycle 1 D15; read-out: Cmax (mean, SD)
Measured Metric: Cmax (ng/mL)

# Compound, Quantitative Readout
measured = [
    ("Cc1c(N[S+](=O)(O)c2c(Cl)cc(-c3ccnc(N4CCNCC4)c3)cc2Cl)c(CC(C)C)nn1C [PCLX-001]", 774),
]

###

# Assay Comment: Plasma pharmacokinetics in phase I clinical trial NCT04836195 (oral daily dose)
# Assay type: in vivo, human
# Test Context: human, plasma, oral, plasma; C1D1; read-out: mean terminal half-life across the dose cohorts
Measured Metric: half-life

# Compound, Result
records = [
    ("Cc1c(N[S+](=O)(O)c2c(Cl)cc(-c3ccnc(N4CCNCC4)c3)cc2Cl)c(CC(C)C)nn1C [PCLX-001]", "6.7 to 9.5 h"),
]

###

# Assay Comment: Plasma pharmacokinetics in phase I clinical trial NCT04836195 (oral daily dose)
# Type: in vivo, human
# Test Context: human, plasma, oral, 20 mg, plasma; 20 mg; Cycle 1 D1; read-out: t½ (mean, SD) (converted)

# Molecule, half-life (h)
rows = [
    ("Cc1c(N[S+](=O)(O)c2c(Cl)cc(-c3ccnc(N4CCNCC4)c3)cc2Cl)c(CC(C)C)nn1C [PCLX-001]", 6.7),
]

###

# Assay Comment: Plasma pharmacokinetics in phase I clinical trial NCT04836195 (oral daily dose)
# Format: in vivo, human
# Test Context: human, plasma, oral, 70 mg, plasma; 70 mg; Cycle 1 D1; read-out: Tmax (median, range)
Measured Metric: Tmax

# Test Smiles, Measured Metric, Result
records = [
    ("Cc1c(N[S+](=O)(O)c2c(Cl)cc(-c3ccnc(N4CCNCC4)c3)cc2Cl)c(CC(C)C)nn1C", "Tmax", "3.9 h"),
]

###

# Assay Comment: Plasma, brain and CSF pharmacokinetics and brain tissue accumulation in mice (LC-MS/MS)
# Assay type: in vivo, male C57BL/6 mice
# Test Context: male, C57BL/6, mouse, plasma, oral, 5 mg/kg, 5 mg/kg oral; time point 0.50 h; read-out: Mean Plasma Conc.

# Molecule, concentration at 0.5 h
measured = [
    ("Cc1c(N[S+](=O)(O)c2c(Cl)cc(-c3ccnc(N4CCNCC4)c3)cc2Cl)c(CC(C)C)nn1C [PCLX-001]", "6.51 µM"),
]

###

# Assay Comment: Plasma, brain and CSF pharmacokinetics and brain tissue accumulation in mice (LC-MS/MS)
# Format: in vivo, male C57BL/6 mice
# Test Context: male, C57BL/6, mouse, brain, oral, 5 mg/kg, 5 mg/kg oral; time point 0.25 h; read-out: Mean Brain Conc.

# Test Smiles, concentration at 0.25 h
data = [
    ("Cc1c(N[S+](=O)(O)c2c(Cl)cc(-c3ccnc(N4CCNCC4)c3)cc2Cl)c(CC(C)C)nn1C", "98.3 nM"),
]

###

# Assay Comment: Plasma pharmacokinetics in phase I clinical trial NCT04836195 (oral daily dose)
# Format: in vivo, human
# Test Context: human, plasma, oral, 140 mg, plasma; 140 mg; Cycle 1 D15; read-out: t½ (mean, SD) (converted)
Measured Metric: half-life (h)

# Compound, Measured Metric, Quantitative Readout
data = [
    ("Cc1c(N[S+](=O)(O)c2c(Cl)cc(-c3ccnc(N4CCNCC4)c3)cc2Cl)c(CC(C)C)nn1C [PCLX-001]", "half-life", 10.4),
]

###

# Assay Comment: Plasma, brain and CSF pharmacokinetics and brain tissue accumulation in mice (LC-MS/MS)
# Type: in vivo, male C57BL/6 mice
# Test Context: male, C57BL/6, mouse, brain, oral, 5 mg/kg, 5 mg/kg oral; time point 8.00 h; read-out: Mean Brain Conc.

# Molecule, concentration at 8 h
measured = [
    ("Cc1c(N[S+](=O)(O)c2c(Cl)cc(-c3ccnc(N4CCNCC4)c3)cc2Cl)c(CC(C)C)nn1C [PCLX-001]", "121 nM"),
]

###

# Assay Comment: Plasma pharmacokinetics in phase I clinical trial NCT04836195 (oral daily dose)
# Type: in vivo, human
# Test Context: human, plasma, oral, 20 mg, plasma; 20 mg; Cycle 1 D1; read-out: Cmax (mean, SD)
Measured Metric: Cmax

# Test Smiles, Measured Metric, Result
rows = [
    ("Cc1c(N[S+](=O)(O)c2c(Cl)cc(-c3ccnc(N4CCNCC4)c3)cc2Cl)c(CC(C)C)nn1C", "Cmax", "276 ng/mL"),
]

###

# Assay Comment: Plasma, brain and CSF pharmacokinetics and brain tissue accumulation in mice (LC-MS/MS)
# Assay type: in vivo, male C57BL/6 mice
# Test Context: male, C57BL/6, mouse, brain, oral, 5 mg/kg, 5 mg/kg oral; time point 4.00 h; read-out: Mean Brain Conc.
Measured Metric: concentration at 4 h (nM)

# Test Smiles, Quantitative Readout
data = [
    ("Cc1c(N[S+](=O)(O)c2c(Cl)cc(-c3ccnc(N4CCNCC4)c3)cc2Cl)c(CC(C)C)nn1C", 176),
]

###

# Assay Comment: Plasma, brain and CSF pharmacokinetics and brain tissue accumulation in mice (LC-MS/MS)
# Assay type: in vivo, male C57BL/6 mice
# Test Context: male, C57BL/6, mouse; oral gavage 5 mg/kg; Brain
Measured Metric: AUC(0-t) (µM·h)

# Molecule, Quantitative Readout
measured = [
    ("Cc1c(N[S+](=O)(O)c2c(Cl)cc(-c3ccnc(N4CCNCC4)c3)cc2Cl)c(CC(C)C)nn1C [PCLX-001]", 2.15),
]

###

# Assay Comment: Plasma, brain and CSF pharmacokinetics and brain tissue accumulation in mice (LC-MS/MS)
# Type: in vivo, male C57BL/6 mice
# Test Context: male, C57BL/6, mouse, brain, oral, 5 mg/kg, 5 mg/kg oral; time point 1.00 h; read-out: Mean Brain Conc.

# Molecule, Unit Abbreviation, concentration at 1 h
rows = [
    ("Cc1c(N[S+](=O)(O)c2c(Cl)cc(-c3ccnc(N4CCNCC4)c3)cc2Cl)c(CC(C)C)nn1C [PCLX-001]", "nM", 64.8),
]

###

# Assay Comment: Plasma pharmacokinetics in phase I clinical trial NCT04836195 (oral daily dose)
# Format: in vivo, human
# Test Context: human, plasma, oral, 140 mg, plasma; 140 mg; Cycle 1 D1; read-out: AUC0-24 (mean, SD)
Measured Metric: AUC(0-t)

# Test Smiles, Result
records = [
    ("Cc1c(N[S+](=O)(O)c2c(Cl)cc(-c3ccnc(N4CCNCC4)c3)cc2Cl)c(CC(C)C)nn1C", "11900 ng·h/mL"),
]

###

# Assay Comment: Plasma, brain and CSF pharmacokinetics and brain tissue accumulation in mice (LC-MS/MS)
# Format: in vivo, male C57BL/6 mice
# Test Context: male, C57BL/6, mouse, plasma, oral, 5 mg/kg, 5 mg/kg oral; time point 8.00 h; read-out: Mean Plasma Conc.
Measured Metric: concentration at 8 h

# Test Smiles, Result
data = [
    ("Cc1c(N[S+](=O)(O)c2c(Cl)cc(-c3ccnc(N4CCNCC4)c3)cc2Cl)c(CC(C)C)nn1C", "5.41 µM"),
]

###

# Assay Comment: Plasma, brain and CSF pharmacokinetics and brain tissue accumulation in mice (LC-MS/MS)
# Type: in vivo, male C57BL/6 mice
# Test Context: male, C57BL/6, mouse; oral gavage 5 mg/kg; Plasma; read-out: C0/Cmax

# Test Smiles, Unit Abbreviation, Cmax
records = [
    ("Cc1c(N[S+](=O)(O)c2c(Cl)cc(-c3ccnc(N4CCNCC4)c3)cc2Cl)c(CC(C)C)nn1C", "µM", 10.6),
]

###

# Assay Comment: Plasma, brain and CSF pharmacokinetics and brain tissue accumulation in mice (LC-MS/MS)
# Format: in vivo, male C57BL/6 mice
# Test Context: male, C57BL/6, mouse, CSF, oral, 5 mg/kg, 5 mg/kg oral; time point 0.50 h; individual animals; read-out: CSF Conc.
Measured Metric: concentration at 0.5 h (nM)

# Test Smiles, Measured Metric, Quantitative Readout
rows = [
    ("Cc1c(N[S+](=O)(O)c2c(Cl)cc(-c3ccnc(N4CCNCC4)c3)cc2Cl)c(CC(C)C)nn1C", "concentration at 0.5 h", 3.44),
]

###

# Assay Comment: Plasma pharmacokinetics in phase I clinical trial NCT04836195 (oral daily dose)
# Format: in vivo, human
# Test Context: human, plasma, oral, patients taking proton pump inhibitors (PPI); read-out: median Tmax range

# Test Smiles, Tmax
records = [
    ("Cc1c(N[S+](=O)(O)c2c(Cl)cc(-c3ccnc(N4CCNCC4)c3)cc2Cl)c(CC(C)C)nn1C", "1 to 6 h"),
]
